Test system: NCI-H226 lung
Experiment: NCI tumour cell line growth inhibition, 48 h
Item-by-item account of TGI
MEASUREMENT TYPE: TGI

> print(dat)
                                   molecule  measurement.type   reported
1     CS(=O)(=O)C1(Br)S(=O)(=O)OCCOS1(=O)=O               TGI   > 100 µM
2  Cc1cc(O)c2c3c(ccc2c1)C(=O)c1c(O)cccc1C3=O               TGI   > 100 µM
3  CC(C)(C)c1cc(C(=O)O)c2c(c1)C(=O)OC2(c1ccccc1)c1ccccc1C(=O)O (stereo not given)               TGI   > 100 µM
4  Cc1ccc(/N=N/C(=NNC(=O)c2ccc(C)cc2)c2ccc(N(C)C)cc2)cc1               TGI    68.4 µM
5  O=C(Nc1ccc2[nH]c(C(=O)N3CC(CCl)c4ccc([N+](=O)[O-])cc43)cc2c1)c1cc2ccccc2o1 (stereo not given)               TGI  > 1100 µM

====

Tested on: M19-MEL melanoma
Assay: NCI tumour cell line growth inhibition, 48 h
MEASUREMENT TYPE: TGI

COMPOUND	REPORTED
COC(=O)CCC(NC(=S)N/N=C(\C)c1cnccn1)C(=O)OC (stereo not drawn)	> 100 µM
c1ccc2cc3c(cc2c1)OP1(Oc2cccc4cccnc24)(O3)Oc2cc3ccccc3cc2O1	38.1 µM
CSc1ccc2c(cc1=O)C(NC(=O)c1ccc(C#N)cc1)CCc1cc(O)c(O)c(O)c1-2 (stereo not drawn)	39 µM
Nc1nc2ncn(CC(O)CO)c2c(=O)[nH]1 (stereo not drawn)	> 100 µM
CN(C)CC(/C(Cc1ccccc1)=N\NC(=S)NN)c1ccccc1 (stereo not drawn)	> 100 µM
CC(=O)Nc1ccc(S(=O)(=O)NN(C)S(=O)(=O)c2ccc(C)cc2)cc1	> 100 µM
C#CCNC(=O)NC(CCCCNC(=O)OCc1ccccc1)C(=O)OCc1ccccc1 (stereo not drawn)	27.6 µM
CCc1ccccc1NC(=O)CC1NC(=O)CS1 (stereo not drawn)	> 100 µM
c1ccc(CN2COc3c(ccc4c5c(ccc34)CN(Cc3ccccc3)CO5)C2)cc1	> 100 µM
CC(C)=CCC/C(C)=C/CCC1(C)C=Cc2c(c3ccccc3oc2=O)O1 (stereo not drawn)	31.4 µM
COc1c(OC(C)C)cc2cc(O)c(C(=O)NC3Cc4ccc(c(Cl)n4)O[C@@H]4C=C5C#C/C(=C\C#CC6OC56C4OC4CC(C)(O)C(O)C(C)O4)C(OC4CC(O)C(N(C)C)C(C)O4)COC3=O)cc2c1OC (stereo partly drawn)	37.5 µg/mL
CC(C)N(C(=O)C12C3C4C1C1C2C3C41C(=O)N(C(C)C)C(C)C)C(C)C (stereo not drawn)	> 50 µM
Oc1cccnc1/C=N/OCc1ccccc1	> 100 µM
C=C1C=CC2(Br)OC3CC(C)(Cl)C(Br)CC13C2(C)C (stereo not drawn)	44.9 µM
O=c1ccn(/C=C/C(O)C(O)CO)c(=O)[nH]1 (stereo not drawn)	> 100 µM
Nc1nc2c(ncn2CCCC(c2ccccc2)P(=O)(O)O)c(=O)[nH]1 (stereo not drawn)	> 100 µM
COc1ccc(/C=C/c2cc(OC)c(OCc3ccccc3)c(OC)c2)cc1	> 100 µM
c1ccc(-c2csc3ncn4cnnc4c23)cc1	> 100 µM

====

Test system: SK-OV-3 ovarian
Test: NCI tumour cell line growth inhibition, 48 h
Item-by-item account of TGI

COMPOUND	TGI
Nc1nc2c(ncn2CCCC(c2ccccc2)P(=O)(O)O)c(=O)[nH]1 (stereo not given)	> 100 µM
CCc1ccccc1NC(=O)CC1NC(=O)CS1 (stereo not given)	> 100 µM
O=S(=O)(O)c1ccc2cc3nn(-c4ccc(/C=C/c5ccc(-n6nc7cc8ccc(S(=O)(=O)O)cc8cc7n6)cc5S(=O)(=O)O)c(S(=O)(=O)O)c4)nc3cc2c1	> 100 µM
C=C1C2CCC3(CCC4C5(C)CCCC4(C=[N+](CCO)C5)C3C2)C1O (stereo not given)	> 100 µM
O=C(c1cc(Cc2n[nH]c(=O)c3ccccc23)ccc1F)N1CCN(C(=O)C2CC2)CC1	> 100 µM
COC(=O)c1ccc(C=C(C#N)C#N)cc1	> 100 µM
O=C(O)Cc1cccc2c(=O)c3cccc([N+](=O)[O-])c3[nH]c12	> 100 µM
N#Cc1cc2c(cc1Cl)Sc1nnc(Nc3cccc4ccccc34)n1S2(=O)=O	35.1 µM
NC(CCCCNCc1ccccc1O)C(=O)O (stereo not given)	> 100 µM
COc1c(OC(C)C)cc2cc(O)c(C(=O)NC3Cc4ccc(c(Cl)n4)O[C@@H]4C=C5C#C/C(=C\C#CC6OC56C4OC4CC(C)(O)C(O)C(C)O4)C(OC4CC(O)C(N(C)C)C(C)O4)COC3=O)cc2c1OC (stereo not given in full)	37.5 mg/L

====

Item-by-item account of TGI
Tested on: HCC-2998 colon
Test: NCI tumour cell line growth inhibition, 48 h
MEASUREMENT TYPE: TGI (µM)

> print(dat)
                                    compound    assay.system  measurement.type  value.relation.sign  reported
 1  CCCCCCCCCCCCC(O)C(=O)O (stereo not given)  HCC-2998 colon               TGI                    >       100
 2  BrCc1ccc(CBr)c2c1-c1c(CBr)ccc3ccc(CBr)c-2c13  HCC-2998 colon               TGI                    >       100
 3  C[C@H]1CN(C2COC2)CCN1c1ccc(Nc2cc(-c3ccnc(N4CCn5c(cc6c5CC(C)(C)C6)C4=O)c3CO)cn(C)c2=O)nc1  HCC-2998 colon               TGI                    >       100
 4  COCCOCCOCCOCCOC(=O)OC[n+]1ccc(NC(=NCCCCCCOc2ccc(Cl)cc2)NC#N)cc1  HCC-2998 colon               TGI                    =      20.5
 5  C[C@@]1(OC(=O)c2cc([N+](=O)[O-])cc([N+](=O)[O-])c2)C[C@@H]2CCCC[C@@H]21  HCC-2998 colon               TGI                    >       100
 6  c1ccc2c(CNCCN3CCNCC3)c3ccccc3c(CNCCN3CCNCC3)c2c1  HCC-2998 colon               TGI                    =      29.4
 7  c1ccc2cc3c(cc2c1)OP1(Oc2cccc4cccnc24)(O3)Oc2cc3ccccc3cc2O1  HCC-2998 colon               TGI                    =      27.2
 8  CC(C)OC(=O)C1Cc2c([nH]c3ccccc23)C(c2ccccc2)N1 (stereo not given)  HCC-2998 colon               TGI                    >       100
 9  COc1ccc(C(=O)Oc2c(C#N)sc3c2c(=O)n(-c2ccccc2)c(=S)n3-c2ccccc2)cc1  HCC-2998 colon               TGI                    =      84.8
10             O=C(O)C12CC3CC(CC(F)(C3)C1)C2  HCC-2998 colon               TGI                    >       100

====

Tested on: SK-MEL-28 melanoma
Test: NCI tumour cell line growth inhibition, 48 h
Item-by-item account of TGI
MEASUREMENT TYPE: TGI

> print(dat)
                                    compound   reported
 1            CN1C(=NCCO)NS(=O)(=O)c2ccccc21   > 100 µM
 2  CC1CC(N2CCOCC2)=Nc2ccccc2N1Cc1ccccc1 (stereo not given)   > 100 µM
 3  COc1cc(-c2ncn(/C=C\c3nnco3)n2)cc(C(F)(F)F)c1  > 34.6 µM
 4  c1ccc2c(CNCCN3CCNCC3)c3ccccc3c(CNCCN3CCNCC3)c2c1   > 100 µM
 5  CCOC(=O)C(CCCNC(=O)OC(C)(C)C)N(Cc1ccc(OC)cc1OC)C(=O)CC(=O)CP(=O)(OCC)OCC (stereo not given)   > 100 µM
 6  O=C1C(Nc2cccc(O)c2)=C(Sc2ccccc2)C(=O)N1Cc1ccccc1    26.1 µM
 7  Nc1nc2ncn(CC(O)CO)c2c(=O)[nH]1 (stereo not given)   > 100 µM
 8  O=S(=O)(NCCCNc1nccc(-c2c(-c3ccc(F)cc3)nc3sccn23)n1)c1ccc(F)cc1   > 100 µM
 9   COc1cc(/C=C/C2=C(C#N)C(=O)OC2(C)C)ccc1O   > 100 µM
10  C=CCNC(=O)CN(CC(=O)OC)C1CCCCC1N(CC(=O)OC)CC(=O)OC (stereo not given)   > 100 µM
